Assay: Rat pharmacokinetic study
Conditions: male, Wistar-Hannover, rat, plasma, iv, […], Vdss, Mean Data, PF-07304814 prodrug dosed […] intravenous, mean
PROPERTY MEASURED: Vd (L/kg)
Respond numerically; units are L/kg and should not be typed.

Report Vd for COc1cccc2[nH]c(C(=O)N[C@@H](CC(C)C)C(=O)N[C@@H](C[C@@H]3CCNC3=O)C(=O)COP(=O)(O)O)cc12 [PF-07304814]
0.58

###

Molecular target: CYP2D6 (Homo sapiens, UniProt P10635)
Sequence (P10635 whole entry): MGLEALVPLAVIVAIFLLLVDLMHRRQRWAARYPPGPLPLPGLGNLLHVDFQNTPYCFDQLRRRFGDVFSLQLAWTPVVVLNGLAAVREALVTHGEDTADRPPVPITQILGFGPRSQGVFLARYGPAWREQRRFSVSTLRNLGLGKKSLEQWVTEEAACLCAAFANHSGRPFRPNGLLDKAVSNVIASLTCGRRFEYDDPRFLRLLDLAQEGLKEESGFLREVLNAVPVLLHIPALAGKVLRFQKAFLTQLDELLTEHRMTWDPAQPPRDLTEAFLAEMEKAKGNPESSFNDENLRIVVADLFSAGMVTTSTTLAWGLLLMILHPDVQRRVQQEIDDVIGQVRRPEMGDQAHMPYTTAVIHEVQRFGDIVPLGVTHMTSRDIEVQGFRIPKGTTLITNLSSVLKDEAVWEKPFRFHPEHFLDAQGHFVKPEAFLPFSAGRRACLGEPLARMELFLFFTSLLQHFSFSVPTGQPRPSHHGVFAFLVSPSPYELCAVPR
Assay: Reversible CYP inhibition in human liver microsomes
Conditions: human, microsomes, pH 7.4, Percent of Control Activity, CYP 2D6, 0.01 µM, 30-Minute Preincubation
PROPERTY MEASURED: activity at 0.01 µM (%)
Respond numerically; units are % and should not be typed.

Report activity at 0.01 µM for COc1cccc2[nH]c(C(=O)N[C@@H](CC(C)C)C(=O)N[C@@H](C[C@@H]3CCNC3=O)C(=O)COP(=O)(O)O)cc12
101
